In this section, each of the molecules is paired with its reported Ki.
Biological target: Melanocortin receptor 4 (Homo sapiens)
Sequence (P32245 whole entry): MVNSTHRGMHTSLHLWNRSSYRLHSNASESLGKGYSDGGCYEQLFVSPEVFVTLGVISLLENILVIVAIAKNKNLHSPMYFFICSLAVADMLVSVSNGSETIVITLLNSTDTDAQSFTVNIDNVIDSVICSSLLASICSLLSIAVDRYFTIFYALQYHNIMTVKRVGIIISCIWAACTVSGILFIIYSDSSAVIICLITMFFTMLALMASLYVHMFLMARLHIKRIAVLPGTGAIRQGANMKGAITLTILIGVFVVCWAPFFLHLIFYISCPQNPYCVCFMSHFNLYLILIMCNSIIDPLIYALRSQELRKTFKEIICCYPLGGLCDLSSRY
Experiment: Binding affinity towards human melanocortin 4 receptor expressed in HEK 293 cells was determined by using [125I]NDP-MSH as radioligand
Type: cell-based, HEK293
# unit: nM | format: bare number

Before answering, review these 3 worked examples.
NC(Cc1ccc(Cl)cc1)C(=O)N1CCN(c2ccccc2CNCCc2cccs2)CC1 (centres undefined)
3900
O=C(CCc1ccc(Cl)cc1)N1CCN(c2ccccc2CNCCc2cccs2)CC1
1000
CC(NCCN1CCCCC1)c1ccccc1N1CCN(C(=O)[C@@H](Cc2ccc(Cl)cc2)NC(=O)CCN)CC1 (some centres undefined)
210

I have this molecule here, `CC(C)(C(=O)N1CCN(c2ccccc2CNCCc2cccs2)CC1)c1ccc(Cl)cc1` , and I need its recorded Ki.
3800

And `NCCC(=O)N[C@H](Cc1ccc(Cl)cc1)C(=O)N1CCN(c2ccccc2CNCCc2cccs2)CC1` ?
21

And `O=C(N[C@H](Cc1ccc(Cl)cc1)C(=O)N1CCN(c2ccccc2CNCCc2cccs2)CC1)c1cccnc1` ?
41

And `NC1(C(=O)N[C@H](Cc2ccc(Cl)cc2)C(=O)N2CCN(c3ccccc3CNCCc3cccs3)CC2)CC1` ?
46

And CC(NCCNc1cccc2ccccc12)c1ccccc1N1CCN(C(=O)[C@@H](Cc2ccc(Cl)cc2)NC(=O)CCN)CC1 (some centres undefined) ?
290

And NC(CC(=O)N1CCN(c2ccccc2CNCCc2cccs2)CC1)c1ccc(Cl)cc1 (centres undefined) ?
5400
